Assignment: determine reported inhibition for the given compounds.
Target: Cyclic GMP-AMP synthase (Mus musculus)
Assay: cyclic GMP-AMP synthase inhibitors, mouse, primary biochemical chemiluminescence (AID 1259399);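 further: 0% = negative control wells and 100% = reference inhibitor with no enzyme activity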
Conditions: recombinant cGAS, Kinase-Glo ATP depletion luminescence; at 12.5 µM; stronger effect = higher value
Hit rate of the full screen: of about 160,000 compounds, about 240 (0.15%) were called active. The entries come from a sample that favours actives as a whole.
Give bare numbers, in %.

Observe how each entry below is paired with its result.
COMPOUND | SUBJECT OF TEST | UNIT LABEL | inhibition
COc1cc([N+](=O)[O-])ccc1NC(=O)C(C)Nc1ccc2nc(C)sc2c1 (stereo unspecified) | Cyclic GMP-AMP synthase (Mus musculus) | % | -7.43
Cc1ccccc1Cc1nc2c(c(=O)[nH]1)CN(C(=O)Cc1ccc(F)cc1)CC2 | Cyclic GMP-AMP synthase (Mus musculus) | % | -2.79
Cc1c[nH]c(=O)n1-c1ccc(C(=O)Nc2cc(Cl)c(N)c(Cl)c2)cc1 | Cyclic GMP-AMP synthase (Mus musculus) | % | -14.6
CCOC(=O)c1c(NC(=O)c2cccc3c2-c2ccccc2C3=O)c(-c2ccc(OC)c(OC)c2)cn1Cc1ccccc1 | Cyclic GMP-AMP synthase (Mus musculus) | % | -5.46
Cc1ccc(C)c(Cn2ccnc2CN(CC(C)C)C(=O)c2cccc(F)c2)c1 | Cyclic GMP-AMP synthase (Mus musculus) | % | -11.5

Batch of 5 compounds: report inhibition for each.
1. Cc1nc(SCC(=O)c2ccc(Cl)cc2)c(C#N)c(C)c1C
2. COCC(=O)Nc1cccc(-n2nc(OCCc3ccc(OC)cc3)nc2-c2ccc(C(F)(F)F)cc2)c1
3. Cc1cc(=O)[nH]c(SCc2cc(-c3ccco3)on2)c1C#N
4. COc1ccc(C23CC4CC(CC(C(=O)NC5CC5)(C4)C2)C3)cc1
5. NCCOCc1ccc(-c2ccc(F)c(CO)c2)cc1

Out:
-5.06
-3.56
9.2
-7.85
-21.2

Would you mind listing inhibition for each of the following compounds?
1. COc1ccc(C2NC(=O)N(C)C3=C2C(=O)N(Cc2ccc(F)cc2)C3)cc1 (stereo unspecified)
2. CCn1c(=NC(=O)Cc2ccc(C)c(C)c2)sc2cc3c(cc21)OCCO3

Out:
-4.51
-9.59

Provide the reported inhibition of each entry below, same order.
1. COc1ccc(-n2c(SCC(=O)N3CCN(C(=O)C(c4ccccc4)c4ccccc4)C(C)C3)nnc2-c2cccc(OC)c2)cc1 (stereo unspecified)
2. CCCCn1nnnc1CSc1nc(C)c(C)c(C)c1C#N
3. Cc1[nH]c2c(c1C(=O)NCCOc1ccccc1F)C(=O)CCC2
4. COc1ccc(CC(=O)NNC(=O)c2cccn(Cc3ccc(F)cc3)c2=O)cc1
5. COc1ccc(-c2nnc3ccc(OCCNS(=O)(=O)c4cccs4)nn23)cc1

Out:
1: -6.69; 2: 0.584; 3: -9.39; 4: -6.25; 5: -9.21

# return inhibition for each item in the list
1. CCCC1(C2CCN(C(=O)[C@H]3C[C@@H]4C=C[C@H]3C4)CC2)NC(=O)N(CCc2cccs2)C1=O (stereo partly specified)
2. CCCc1cc(C(=O)NC(CC)C2CCCO2)sc1C (stereo unspecified)
3. COc1ccc(C(=O)N2CCCC3(CC2)CNC(=O)O3)cc1N1CCOCC1 (stereo unspecified)
4. N#Cc1ccc(-c2ccccc2)nc1SC(C(=O)O)c1ccccc1 (stereo unspecified)

Out:
1: -8.91; 2: 3.24; 3: -11.6; 4: -4.77

The measurements presented in this section are drawn from PubChem BioAssay AID1259399.
